All figures here come from the supplement of paper PMC8728848.

target: Gal(b1-3)[Neu5Ac(b2-6)]GalNAc; experiment: glycan array binding signal (z-score within array); higher = stronger binding; details: glycan notation: IUPAC condensed, linker removed
Shown is part of a subset that was picked to be rich in the strongest signals.
READOUT NAME: glycan array binding signal (z-score)

INSERT INTO measurements (binder, value_measured) VALUES
  ('SBD (Rhizopus oryzae), P07683 (protein) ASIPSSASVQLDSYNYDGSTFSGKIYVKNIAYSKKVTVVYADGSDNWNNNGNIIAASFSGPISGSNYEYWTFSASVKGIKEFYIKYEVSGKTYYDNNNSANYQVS', -0.657),
  ('PLU (Photorhabdus luminiscence) (protein) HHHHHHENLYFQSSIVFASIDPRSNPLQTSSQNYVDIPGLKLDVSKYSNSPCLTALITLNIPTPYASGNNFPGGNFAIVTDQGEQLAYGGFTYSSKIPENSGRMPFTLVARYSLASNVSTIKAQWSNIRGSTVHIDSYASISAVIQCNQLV', -0.298);

Input: Tell me the measured glycan array binding signal (z-score) of FimA-N3 (Actinomyces oris) (protein) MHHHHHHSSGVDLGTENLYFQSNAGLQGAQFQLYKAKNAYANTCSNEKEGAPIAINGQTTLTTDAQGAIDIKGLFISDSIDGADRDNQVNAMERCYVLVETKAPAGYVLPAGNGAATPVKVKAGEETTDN , please.
Output: -0.563

Input: Returns the measured glycan array binding signal (z-score) for the input binder. Input: LlpA (Burkholderia cenocepacia) (protein) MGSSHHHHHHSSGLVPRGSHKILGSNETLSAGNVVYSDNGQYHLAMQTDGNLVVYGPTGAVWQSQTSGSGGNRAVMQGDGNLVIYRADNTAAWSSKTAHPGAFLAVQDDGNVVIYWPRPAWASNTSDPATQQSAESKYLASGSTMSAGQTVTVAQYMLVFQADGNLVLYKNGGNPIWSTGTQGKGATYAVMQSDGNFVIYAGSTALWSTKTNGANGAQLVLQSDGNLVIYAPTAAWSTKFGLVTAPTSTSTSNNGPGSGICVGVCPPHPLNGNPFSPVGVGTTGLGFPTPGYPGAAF
Output: -0.687
